Source of measurements: PubChem BioAssay (NCI)

System: COLO 205 colon
test-description: NCI tumour cell line growth inhibition, 48 h
Entries and their TGI
Only the number, expressed in µM, is required.

As a guide, the following entries are already answered.
CN(C)CCCN1c2ccc(O)cc2Sc2ccc(Cl)cc21	39.3
O=C1c2ccccc2C(=O)c2sc(Nc3ccc(Cl)cc3)nc21	17.7

Next molecule, please.
What value of TGI on COLO 205 colon does CC[C@H]1C=CCC[C@@]2(C[C@@H]3CC[C@H]4[C@@H](C(=O)OCCCCCCCCCCCCCCCC(=O)N(CCCNC(C)=O)C[C@H](CCNC(C)=O)OC(C)=O)[C@@]5(CCC[C@@H](C)O5)NC(=[N+]34)N2)O1 have?
2.67
